System: T1, murine HER2 (murine, UniProt P70424 23-1256)
T1 chain: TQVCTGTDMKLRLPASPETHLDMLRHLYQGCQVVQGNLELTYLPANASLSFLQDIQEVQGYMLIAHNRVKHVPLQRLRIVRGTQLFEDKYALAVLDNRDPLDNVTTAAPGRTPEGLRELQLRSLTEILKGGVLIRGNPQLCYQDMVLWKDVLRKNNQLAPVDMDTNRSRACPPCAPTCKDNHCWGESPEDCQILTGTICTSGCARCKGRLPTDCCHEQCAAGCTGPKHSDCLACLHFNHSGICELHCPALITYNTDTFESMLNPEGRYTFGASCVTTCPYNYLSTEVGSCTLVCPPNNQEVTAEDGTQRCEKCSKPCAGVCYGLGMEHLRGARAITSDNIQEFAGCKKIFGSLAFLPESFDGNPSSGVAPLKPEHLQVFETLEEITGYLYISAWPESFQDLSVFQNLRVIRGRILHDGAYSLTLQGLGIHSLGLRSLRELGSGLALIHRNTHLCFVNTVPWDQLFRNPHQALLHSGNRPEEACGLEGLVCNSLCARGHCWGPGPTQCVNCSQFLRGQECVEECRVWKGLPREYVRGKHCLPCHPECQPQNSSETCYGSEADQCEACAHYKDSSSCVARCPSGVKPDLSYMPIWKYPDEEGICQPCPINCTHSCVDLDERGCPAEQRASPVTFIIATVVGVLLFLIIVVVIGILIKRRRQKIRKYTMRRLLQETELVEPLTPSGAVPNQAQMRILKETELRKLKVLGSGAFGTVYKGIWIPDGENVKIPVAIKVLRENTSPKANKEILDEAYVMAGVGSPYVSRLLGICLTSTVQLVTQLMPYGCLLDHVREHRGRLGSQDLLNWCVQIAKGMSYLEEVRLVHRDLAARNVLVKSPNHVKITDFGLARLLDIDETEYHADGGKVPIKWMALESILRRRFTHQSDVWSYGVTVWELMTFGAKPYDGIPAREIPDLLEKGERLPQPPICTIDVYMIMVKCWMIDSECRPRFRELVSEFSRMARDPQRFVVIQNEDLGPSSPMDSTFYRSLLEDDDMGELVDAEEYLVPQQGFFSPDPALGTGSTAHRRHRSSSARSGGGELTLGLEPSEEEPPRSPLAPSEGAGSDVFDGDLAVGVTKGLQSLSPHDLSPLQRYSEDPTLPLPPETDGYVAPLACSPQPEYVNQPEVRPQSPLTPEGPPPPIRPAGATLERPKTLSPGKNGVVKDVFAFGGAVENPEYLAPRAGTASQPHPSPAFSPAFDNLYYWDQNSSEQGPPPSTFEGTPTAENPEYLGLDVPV
Quantity: Kd (nM)
Give just the number in nM; leave the unit off.

Guide cases for Kd, answers given:
>  <Binder>
h1159 Pro1062 (antibody, V domains shown) VH: QVQLLESGGGLVQPGGSLRLSCATSGRTFSSLAMGWFRQAPGKERELVAGISWSGSTTYYADSVKGRFAISRDNSKNTLYLQMNSLRAEDTAVYYCAARTSSIATIGREYDYWGQGTLVTVSS

>  <Assay value>
19100

$$$$
>  <Binder>
h1162 Pro1064 (antibody, V domains shown) VH: QVQLLESGGGLVQPGGSLRLSCAASGRPFSGNAMGWFRQAPGKEREFVAAISWSGDSTYYADSVKGRFTISRDNSKNTLYLQMNSLRAEDTAVYYCAATRSFYSRTYYTRPSDYNYWGPGTLVTVSS

>  <Assay value>
122

$$$$
>  <Binder>
1159 Pro1045 (antibody, V domains shown) VH: QVQLQESGGGLVQAGGSLRLSCATSGRTFSSLAMGWFRQAPGKERELVAGISWSGSTTYYADSVKGRFAISRDNAKNTVYLQMNSLKPEDTAVYYCAARTSSIATIGREYDYWGQGTQVTVSS

>  <Assay value>
80

$$$$

// returns reported Kd for input 1162 Pro1047 (antibody, V domains shown) VH: QVQLQESGGGLVQAGGSLRLSCAASGRPFSGNAMGWFRQAPGKEREFVAAISWSGDSTYYADSVKGRFTISRDNDENTAYLQMNSLKPEDTAVYYCAATRSFYSRTYYTRPSDYNYWGPGTQVTVSS
54

Just for reference, patent US20230340159A1 is where these values come from.
